- Tgt: T1, Rok-C114-185 K136A (Bacillus subtilis subsp. subtilis str. …, UniProt O34857 114-185, K136A)
- T1 sequence: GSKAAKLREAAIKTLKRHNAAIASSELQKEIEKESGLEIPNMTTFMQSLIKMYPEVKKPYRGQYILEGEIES
- Protocol summary: ITC; ITC: sodium phosphate buffer, 200 mM NaCl, pH 6, 277 K, 50 uM protein in cell titrated with 750 uM Seq1 DNA; PBM: buffer not stated
- Condition details: protein: recombinant; tags: C-terminal His6; blunt, self-complementary 18 bp
pKd: −log10 of the molar value.
Assay readout: pKd

>>> readout_value("Seq1 (dsDNA) DNA 1: CTAATAACTAGTTATTAG DNA 2: CTAATAACTAGTTATTAG")
4.40
